- measurement-notes: Pharmacokinetic evaluation in C57BL/6 mice
- Assay type: in vivo
- applied-conditions: male, mouse, plasma, intravenous 1 mpk / gavage 5 mpk study, route not stated, unit printed shifted under first column, read-out: Area under the drug concentration time curve (AUC)
observed-property: AUC (µM·h)
Reply numerically in µM·h, unit not repeated.

The recorded AUC for CC(C)S(=O)(=O)c1c(Cl)ccc(NC(=O)N[C@H]2CCCc3ccoc32)c1O [WX003A] is 12.7

====

- measurement-notes: Pharmacokinetic evaluation in C57BL/6 mice
- Type: in vivo
- applied-conditions: male, mouse, plasma, intravenous 1 mpk / gavage 5 mpk study
observed-property: clearance (mL/min/kg)
Reply numerically in mL/min/kg, unit not repeated.

CC(C)S(=O)(=O)c1c(Cl)ccc(NC(=O)N[C@H]2CCCc3ccoc32)c1O [WX003A]    11.2
O=C(Nc1ccc(Cl)c(S(=O)(=O)[C@H]2CCCNC2)c1O)NC1CCCc2ccoc21 (single isomer, unassigned) [WX013A]    30.8

The recorded clearance for Cc1c(F)cccc1NC(=O)Nc1ccc(Cl)c(S(=O)(=O)[C@H]2CCCNC2)c1O [Danirixin, danirixin, reference compound] is 42.5

The recorded clearance for O=C(Nc1ccc(Cl)c(S(=O)(=O)CC(F)(F)F)c1O)N[C@H]1CCCc2ccoc21 [WX012A] is 15.8

The recorded clearance for O=C(Nc1ccc(Cl)c(S(=O)(=O)C2CC2)c1O)NC1CCCc2ccoc21 (single isomer, unassigned) [WX006A] is 8.3
